B1: HDV Ribozyme (parent)
chain: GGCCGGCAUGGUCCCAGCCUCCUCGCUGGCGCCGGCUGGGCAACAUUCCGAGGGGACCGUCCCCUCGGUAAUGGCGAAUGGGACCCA

Variants of: B1
assay_overview: self-cleavage, relative activity (ratio to wild type); higher = more cleavage; co-transcriptional
property_measured: self-cleavage
Give bare numbers.

Consider the following illustrative entries.
| variant | val |
| --- | --- |
| A8C G55C | 1.03 |
| C36A G39U | 0.0906 |

Pending variant:
# query: self-cleavage of entry C22G G81U
0.089
